Attribution: patent US20110287512

In what follows, each item is paired with its binding signal (normalized ELISA) for ZFP7264 linker LRQKDERP (artificial).

construct sequence: TTAGTTAAAGCGCTGCTCCGAATATC (double strand) [7264 target gap CT]
target desc: ZFP7264 linker LRQKDERP (artificial)
binding signal (normalized ELISA): 0.02
--
construct sequence: TTAGTTAAAGCGTAGCTCCGAATATC (double strand) [7264 target gap TA]
target desc: ZFP7264 linker LRQKDERP (artificial)
binding signal (normalized ELISA): 0.02
--
construct sequence: TTAGTTAAAGCGGGCTCCGAATATC (double strand) [7264 target gap G]
target desc: ZFP7264 linker LRQKDERP (artificial)
binding signal (normalized ELISA): 0.06
--
construct sequence: TTAGTTAAAGCGCGCTCCGAATATC (double strand) [7264 target gap C]
target desc: ZFP7264 linker LRQKDERP (artificial)
binding signal (normalized ELISA): 0.03
--
construct sequence: TTAGTTAAAGCGAGCTCCGAATATC (double strand) [7264 target gap A]
target desc: ZFP7264 linker LRQKDERP (artificial)
binding signal (normalized ELISA): 0.05
--
construct sequence: TTAGTTAAAGCGTTGCTCCGAATATC (double strand) [7264 target gap TT]
target desc: ZFP7264 linker LRQKDERP (artificial)
binding signal (normalized ELISA): 0.02
